Measured values drawn from PubChem BioAssay (NCI) for this set.

Tested on: HS 578T breast
protocolSummary: NCI tumour cell line growth inhibition, 48 h
outcomeMeasure: TGI

molecule	valueMeasured
O=C1C(C=NCCc2c[nH]c3ccccc23)C(C(F)(F)F)=NN1c1nc2ccccc2s1 (stereo unspecified)	> 100 µM
O=C(/C=C/c1cccs1)c1ccc(Cl)cc1	> 100 µM
Cc1cccc(N(CCC#N)S(=O)(=O)c2ccccc2)c1	> 100 µM
CN(C)S(=O)(=O)Nc1ccccn1	> 100 µM
Cn1cc(C2=C(c3ccc(OC[C@@H](O)CO)cc3)C(=O)NC2=O)c2ccccc21	> 25 µM
CC1=CC=CC(C)(C)CC1(O[Si](C)(C)C)C(F)(F)F (stereo unspecified)	> 100 µM
